target: comprehensive panel of mammalian CNS-based proteins; experiment: radioligand binding; competition binding assays (NIMH PDSP): 10 microM LS3 against known radioligands for 33 targets; percent inhibition measured 4 times for each receptor; less than 50% inhibition considered insignificant
Bridges are numbered along the chain shown (N, C = ends). Where no end group is shown, it is not given here.
endpoint: Ki

Sample CRRGLVQVC (disulfide 1-9) [LS3 (… with a 1–9 disulfide bridge)] — what was its Ki?
> 10 µM
